koff values for the binders below.
Target: T1, human-CD40 monomer (human, UniProt P25942 21-193, limits assumed)
T1 construct: also called hCD40-monomer; human-CD40-monomer protein
T1 sequence (P25942 21-193 limits assumed): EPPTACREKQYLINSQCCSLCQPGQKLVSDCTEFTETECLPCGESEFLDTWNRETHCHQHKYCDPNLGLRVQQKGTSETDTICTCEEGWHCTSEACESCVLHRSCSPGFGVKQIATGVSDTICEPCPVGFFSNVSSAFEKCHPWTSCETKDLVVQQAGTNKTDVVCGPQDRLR
Experiment: SPR 2 pt screen, Ab on protein A

{"columns": ["BINDER", "koff, s⁻¹"],
 "data": [
  ["humanized Y1238 hz31 (hz-HC7 / hz-LC1), IgG1.3f (antibody, V domains shown, IgG1.3f heavy constant, common CL; expression supernatant; also called Sup 31) VH: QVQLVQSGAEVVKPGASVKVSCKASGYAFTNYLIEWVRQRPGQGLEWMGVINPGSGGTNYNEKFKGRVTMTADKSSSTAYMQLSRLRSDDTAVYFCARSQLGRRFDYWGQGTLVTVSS VL: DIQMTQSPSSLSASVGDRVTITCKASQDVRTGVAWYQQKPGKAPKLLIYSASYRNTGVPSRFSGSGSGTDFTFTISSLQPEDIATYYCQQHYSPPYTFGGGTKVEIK", 0.00012],
  ["humanized Y1238 hz22 (hz-HC5 / hz-LC2), IgG1.3f (antibody, V domains shown, IgG1.3f heavy constant, common CL; expression supernatant; also called Sup 22) VH: QVQLVQSGAEVKKPGASVKVSCKASGYAFTNYLIEWVRQRPGQGLEWMGVINPGSGGTNYNEKFKGRVTMTADKSISTAYMELSRLRSDDTAVYYCARSQLGRRFDYWGQGTLVTVSS VL: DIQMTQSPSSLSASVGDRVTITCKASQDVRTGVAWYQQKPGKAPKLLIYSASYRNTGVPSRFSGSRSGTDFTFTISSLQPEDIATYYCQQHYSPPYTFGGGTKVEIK", 0.00012],
  ["humanized Y1238 hz27 (hz-HC6 / hz-LC2), IgG1.3f (antibody, V domains shown, IgG1.3f heavy constant, common CL; expression supernatant; also called Sup 27) VH: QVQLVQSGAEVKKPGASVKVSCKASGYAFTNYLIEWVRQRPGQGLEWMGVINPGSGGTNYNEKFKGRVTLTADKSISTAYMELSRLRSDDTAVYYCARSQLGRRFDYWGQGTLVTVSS VL: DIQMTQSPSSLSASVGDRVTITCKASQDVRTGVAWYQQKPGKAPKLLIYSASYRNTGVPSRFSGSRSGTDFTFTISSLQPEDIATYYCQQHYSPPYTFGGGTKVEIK", 0.00013],
  ["humanized Y1238 hz42 (hz-HC9 / hz-LC2), IgG1.3f (antibody, V domains shown, IgG1.3f heavy constant, common CL; expression supernatant; also called Sup 42) VH: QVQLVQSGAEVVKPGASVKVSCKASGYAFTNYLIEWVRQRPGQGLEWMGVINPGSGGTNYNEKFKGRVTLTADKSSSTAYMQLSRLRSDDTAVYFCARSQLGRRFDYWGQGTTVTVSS VL: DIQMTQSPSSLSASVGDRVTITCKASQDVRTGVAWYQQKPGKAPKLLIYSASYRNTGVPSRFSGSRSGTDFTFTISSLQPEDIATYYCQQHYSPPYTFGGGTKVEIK", 0.0002],
  ["humanized Y1238 hz1 (hz-HC1 / hz-LC1), IgG1.3f (antibody, V domains shown, IgG1.3f heavy constant, common CL; expression supernatant; also called Sup 1) VH: QVQLVQSGAEVKKPGASVKVSCKASGYAFTNYLIEWVRQAPGQGLEWMGVINPGSGGTNYNEKFKGRVTMTRDTSISTAYMELSRLRSDDTAVYYCARSQLGRRFDYWGQGTLVTVSS VL: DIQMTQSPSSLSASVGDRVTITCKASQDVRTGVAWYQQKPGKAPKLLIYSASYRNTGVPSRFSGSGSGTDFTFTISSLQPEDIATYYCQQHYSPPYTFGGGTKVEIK", 0.0002]
]}
